Data origin, for the record: patent US20230303695A1

Answer each item with its documented kon.
# testedTarget: T1, recombinant human IGSF8 extracellular domain tagged by a human Fc region (IGSF8-hFc) (human, UniProt Q969P0 28-579, biotin label in Examples 17, 18 and 28 (site not given))
# T1 construct: also called IGSF8-Fc fusion protein; IGSF8-hFc-biotin; not shown: human Fc region
# T1 sequence: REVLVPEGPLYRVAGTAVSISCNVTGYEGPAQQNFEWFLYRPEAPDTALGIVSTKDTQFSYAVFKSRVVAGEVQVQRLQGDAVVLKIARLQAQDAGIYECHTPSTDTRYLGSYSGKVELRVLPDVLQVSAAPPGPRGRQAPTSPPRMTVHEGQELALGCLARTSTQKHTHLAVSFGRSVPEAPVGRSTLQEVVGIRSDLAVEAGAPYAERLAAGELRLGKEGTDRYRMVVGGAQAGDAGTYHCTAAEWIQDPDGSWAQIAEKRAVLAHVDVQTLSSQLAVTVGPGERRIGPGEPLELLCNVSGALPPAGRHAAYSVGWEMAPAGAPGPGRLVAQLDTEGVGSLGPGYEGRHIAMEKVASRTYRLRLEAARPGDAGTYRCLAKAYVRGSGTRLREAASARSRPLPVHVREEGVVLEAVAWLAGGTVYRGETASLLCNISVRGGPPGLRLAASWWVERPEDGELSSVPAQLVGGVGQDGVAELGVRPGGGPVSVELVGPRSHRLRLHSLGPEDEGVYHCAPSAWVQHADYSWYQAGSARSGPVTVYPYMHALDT
# assayDetails: SPR, Ab captured
Just the number in M⁻¹ s⁻¹, nothing appended.

[ask] Provide kon value for the following binder: L1-22 (antibody, V domains shown) VH: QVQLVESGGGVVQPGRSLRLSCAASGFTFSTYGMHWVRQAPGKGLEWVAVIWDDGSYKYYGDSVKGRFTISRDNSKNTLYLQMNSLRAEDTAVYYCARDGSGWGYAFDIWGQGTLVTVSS VL: DIQLTQSPSSLSASVGDRVTITCQASQDISPWLNWYQHKPGKAPKPLIYGSPNLETGVPSRFSGSGSGTDFTFTISSLQPEDIATYYCQQYDSFPYTFGQGTKVEIK
[reply] 123000

[ask] Report kon, nothing else, for this binder: L1-19 (antibody, V domains shown) VH: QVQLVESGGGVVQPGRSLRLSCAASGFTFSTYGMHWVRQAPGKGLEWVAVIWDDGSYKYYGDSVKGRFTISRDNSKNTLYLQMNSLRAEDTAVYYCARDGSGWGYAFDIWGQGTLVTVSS VL: DIQMTQSPSSLSASVGDRVTITCQASQDISPYLNWYQQKPGKAPKLLIYDAPNLETGVPSRFSGSGSGTDFTFTISSLQPEDIATYYCQQYDSFPYTFGQGTKVEIK
[reply] 154000

[ask] For the binder L1-03 (antibody, V domains shown) VH: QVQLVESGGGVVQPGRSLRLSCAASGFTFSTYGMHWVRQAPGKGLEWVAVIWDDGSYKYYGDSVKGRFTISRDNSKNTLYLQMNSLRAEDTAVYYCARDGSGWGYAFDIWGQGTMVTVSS VL: DIQLTQSPSSLSASVGDRVTITCQASQDISEYLNWYQHKPGKAPNPLVFRSPNLETGVPPRFSATGSGTDFSLTITSLQPEDFATYYCQQYDSFPYTFGQGTRLDIK , report kon.
[reply] 293000

[ask] Respond only with kon recorded for L2VL-D93S (antibody, V domains shown) VH: EVQLVESGGGLEQPGGSLRLSCAGSGFTFRDYAMTWVRQAPGKGLEWVSSISGSGGNTYYADSVKGRFTISRDNSKNTLYLQMNSLRAEDTAIYYCARGEYSSGWPSWFDPWGQGTLVTVSS VL: EIVLTQSPSSLSASVGDRVTISCRASRTVGTFLNWYQQRPGKPPQALILGVSILEGGVSSRFSGAGSGTEFSLTISSLQPEDIGTYYCQQSHSVPRTFGQGTKVDLR
[reply] 29700

[ask] Look up and report measured kon for this entry: L1-04 (antibody, V domains shown) VH: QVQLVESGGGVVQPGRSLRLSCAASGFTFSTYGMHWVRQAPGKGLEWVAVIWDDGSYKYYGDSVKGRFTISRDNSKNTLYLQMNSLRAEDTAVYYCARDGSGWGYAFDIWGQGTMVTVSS VL: DIQLTQSPSSLSASVGDRVTITCQASQDISEYLNWYQHKPGKAPNPLVFGSPNLETGVPPRFSATGSGTDFSLTITSLQPEDFATYYCQQYDSFPYTFGQGTRLDIK
[reply] 300000
